- SYSTEM: Kv7.2/7.3 (Homo sapiens, UniProt O43525+O43526)
- ASSAY DETAILS: Kv7.2/7.3 Thallium Flux Assay
- Assay type: cell-based
- Parameters: host or cells: HEK cells, tetracycline-inducible expression
- EXPERIMENTAL CONTEXT: read-out: Kv7.2/7.3 Activity: EC50 of Kv7.2/Kv7.3 activation
REPORTED ENDPOINT: EC50

# example entries with known answers
COMPOUND | EC50
CC(C)(C)n1c(NC(=O)CC2CC(F)(F)C2(F)F)nc2cc(F)ccc21 (single isomer, unassigned) [Example 528] | < 1 µM
CC1(n2c(NC(=O)CC3CC(F)(F)C3(F)F)nc3c(F)cc(C#N)c(F)c32)CCC1 (single isomer, unassigned) [Example 542] | < 1 µM
CC(C)(C)n1c(NC(=O)CC2CC(F)(F)C2(F)F)nc2cc(F)cc(F)c21 (single isomer, unassigned) [Example 532] | < 1 µM
CC1(n2c(NC(=O)CC3CC(F)(F)C3(F)F)nc3ccc(C#N)c(OC(F)(F)F)c32)CCC1 (single isomer, unassigned) [Example 493] | < 1 µM
CC(C)(C)n1c(NC(=O)CC2CC(F)(F)C2(F)F)nc2cc(F)c(Cl)cc21 (single isomer, unassigned) [Example 535] | < 1 µM

## Input Recorded EC50 of CC(C)(C)n1c(NC(=O)CC(C)(C)C(F)(F)F)nc2cc(F)cc(F)c21 [Example 530] , please.
## Output < 1 µM

###

- SYSTEM: Kv7.2/7.3 (Homo sapiens, UniProt O43525+O43526)
- ASSAY DETAILS: Kv7.2/7.3 Activation Assay, QPatch single concentration screen
- Format: cell-based
- Set-up: host or cells: HEK cells, tetracycline-inducible expression
- EXPERIMENTAL CONTEXT: Kv7.2/Kv7.3 co-expressing HEK cells, compound concentration 3 μM, steady-state current at end of 2 s pulse to −30 mV
REPORTED ENDPOINT: Kv7.2/7.3 Activity: increase over baseline in current

# example entries with known answers
COMPOUND | SYSTEM | RECORDED VALUE
CC(C)(CC(=O)Nc1nc2c(F)cc(C#N)c(F)c2n1C1CCC1)C1CC1 [Example 464] | Kv7.2/7.3 (Homo sapiens, UniProt O43525+O43526) | ++ (3-3.9 (++))
COc1cccc2nc(NC(=O)CC(C)(O)c3ccccc3)n(C3CCC3)c12 (single isomer, unassigned) [Example 358] | Kv7.2/7.3 (Homo sapiens, UniProt O43525+O43526) | + (1.2-2.9 (+))
CC(O)(CC(=O)Nc1nc2ccc(C#N)cc2n1CC(F)(F)F)c1ccccc1 (single isomer, unassigned) [Example 396] | Kv7.2/7.3 (Homo sapiens, UniProt O43525+O43526) | + (1.2-2.9 (+))
C[C@H](CC(=O)Nc1nc2c(F)cc(C(C)(C)O)cc2n1C1CCC1)c1ccccc1 [Example 412] | Kv7.2/7.3 (Homo sapiens, UniProt O43525+O43526) | ++ (3-3.9 (++))
CC(C)(C)CC(=O)Nc1nc2c(F)cc(C(O)(CF)CF)cc2n1C1CCC1 [Example 479] | Kv7.2/7.3 (Homo sapiens, UniProt O43525+O43526) | ++ (3-3.9 (++))

## Input Recorded Kv7.2/7.3 Activity: increase over baseline in current of CC(O)(CC(=O)Nc1nc2cc(F)c(C#N)cc2n1C1(C)CCC1)c1ccccc1F (single isomer, unassigned) [Example 373] , please.
## Output ++ (3-3.9 (++))

## Input Recorded Kv7.2/7.3 Activity: increase over baseline in current of CC(C)(CC(=O)Nc1nc2ccc(OC(F)F)cc2n1C(C)(C)C)C1CC1 [Example 427] , please.
## Output ++ (3-3.9 (++))

## Input Recorded Kv7.2/7.3 Activity: increase over baseline in current of CC(O)(CC(=O)Nc1nc2cc(F)cc(C#N)c2n1C1(C)CCC1)c1ccccc1 (single isomer, unassigned) [Example 441] , please.
## Output ++ (3-3.9 (++))

## Input Recorded Kv7.2/7.3 Activity: increase over baseline in current of COc1cc(F)c2nc(NC(=O)CC(C)(C)C(F)(F)F)n(C3(C)CCC3)c2c1 [Example 433] , please.
## Output ++ (3-3.9 (++))

## Input Recorded Kv7.2/7.3 Activity: increase over baseline in current of CC(C)(CC(=O)Nc1nc2cccc(F)c2n1C1CCC1)C(F)(F)F [Example 408] , please.
## Output ++ (3-3.9 (++))

## Input Recorded Kv7.2/7.3 Activity: increase over baseline in current of CC(O)(CC(=O)Nc1nc2c(F)cc(C#N)cc2n1C(C)(C)C)c1ccccc1F (single isomer, unassigned) [Example 348] , please.
## Output O

## Input Recorded Kv7.2/7.3 Activity: increase over baseline in current of CC(C)(CC(=O)Nc1nc2cc(F)c(OC(F)F)cc2n1C1(C)CCC1)C1CC1 [Example 367] , please.
## Output ++ (3-3.9 (++))

###

- SYSTEM: Kv7.2/7.3 (Homo sapiens, UniProt O43525+O43526)
- ASSAY DETAILS: Kv7.2/7.3 Activation Assay, QPatch single concentration screen
- Type: cell-based
- Design: host or cells: HEK cells, tetracycline-inducible expression
- EXPERIMENTAL CONTEXT: Kv7.2/Kv7.3 co-expressing HEK cells, compound concentration 3 μM, steady-state current at end of 2 s pulse to −30 mV
REPORTED ENDPOINT: Kv7.2/7.3 Activity: increase over baseline in current

COMPOUND | SYSTEM | RECORDED VALUE
CC(C)(C)CC(=O)Nc1nc2cc(F)cc(C#N)c2n1C1(C)CCC1 [Example 436] | Kv7.2/7.3 (Homo sapiens, UniProt O43525+O43526) | ++ (3-3.9 (++))
CC(C)(CC(=O)Nc1nc2ccc(C#N)cc2n1C(C)(C)C)C1CC1 [Example 354] | Kv7.2/7.3 (Homo sapiens, UniProt O43525+O43526) | ++ (3-3.9 (++))
CC(C)(CC(=O)Nc1nc2c(F)cc(C#N)cc2n1C(C)(C)C)C(F)F [Example 364] | Kv7.2/7.3 (Homo sapiens, UniProt O43525+O43526) | ++ (3-3.9 (++))
CC(O)(CC(=O)Nc1nc2cc(F)c(C#N)cc2n1C1CCC1)c1ccccc1 (single isomer, unassigned) [Example 350] | Kv7.2/7.3 (Homo sapiens, UniProt O43525+O43526) | + (1.2-2.9 (+))
CC(C)(C)n1c(NC(=O)CC(C)(C)C(F)(F)F)nc2ccc(C#N)c(F)c21 [Example 444] | Kv7.2/7.3 (Homo sapiens, UniProt O43525+O43526) | ++ (3-3.9 (++))
CC1(Cn2c(NC(=O)CC(C)(O)c3ccccc3)nc3ccc(C#N)cc32)CC1 (single isomer, unassigned) [Example 471] | Kv7.2/7.3 (Homo sapiens, UniProt O43525+O43526) | + (1.2-2.9 (+))
CC(C)(O)c1ccc2nc(NC(=O)CC3CC(F)(F)C3(F)F)n(C3CCC3)c2c1 (single isomer, unassigned) [Example 398] | Kv7.2/7.3 (Homo sapiens, UniProt O43525+O43526) | + (1.2-2.9 (+))
CC(C)(C)CC(=O)Nc1nc2c(F)cc(C(C)(O)C3CC3)cc2n1C1CCC1 (centres unmarked) [Example 445] | Kv7.2/7.3 (Homo sapiens, UniProt O43525+O43526) | ++ (3-3.9 (++))

## Input Test system Kv7.2/7.3 (Homo sapiens, UniProt O43525+O43526); read-out Kv7.2/7.3 Activity: increase over baseline in current; what value for CC1(CC(=O)Nc2nc3c(F)cc(C(C)(C)O)cc3n2C2CCC2)CC1 [Example 403] ?
## Output ++ (3-3.9 (++))

## Input Test system Kv7.2/7.3 (Homo sapiens, UniProt O43525+O43526); read-out Kv7.2/7.3 Activity: increase over baseline in current; what value for CC1(CC(=O)Nc2nc3c(F)cc(C(C)(C)O)cc3n2C2(C)CCC2)CC1 [Example 474] ?
## Output O

## Input Test system Kv7.2/7.3 (Homo sapiens, UniProt O43525+O43526); read-out Kv7.2/7.3 Activity: increase over baseline in current; what value for CC(C)(C)CC(=O)Nc1nc2cc(F)c(C#N)cc2n1C1(C)CCC1 [Example 437] ?
## Output ++ (3-3.9 (++))

## Input Test system Kv7.2/7.3 (Homo sapiens, UniProt O43525+O43526); read-out Kv7.2/7.3 Activity: increase over baseline in current; what value for CC(C)(CC(=O)Nc1nc2cc(F)c(OC(F)F)cc2n1C(C)(C)C)C1CC1 [Example 368] ?
## Output + (1.2-2.9 (+))

## Input Test system Kv7.2/7.3 (Homo sapiens, UniProt O43525+O43526); read-out Kv7.2/7.3 Activity: increase over baseline in current; what value for CC(CF)(CF)CC(=O)Nc1nc2c(F)cc(C(C)(C)O)cc2n1C1(C)CCC1 [Example 480] ?
## Output O

## Input Test system Kv7.2/7.3 (Homo sapiens, UniProt O43525+O43526); read-out Kv7.2/7.3 Activity: increase over baseline in current; what value for CC(C)(CC(=O)Nc1nc2ccc(C#N)cc2n1C(C)(C)C(F)(F)F)C1CC1 [Example 333] ?
## Output ++ (3-3.9 (++))

## Input Test system Kv7.2/7.3 (Homo sapiens, UniProt O43525+O43526); read-out Kv7.2/7.3 Activity: increase over baseline in current; what value for CC(C)(O)c1ccc2nc(NC(=O)CC(C)(C)C(F)(F)F)n(C34CC(C3)C4)c2c1 [Example 404] ?
## Output + (1.2-2.9 (+))

## Input Test system Kv7.2/7.3 (Homo sapiens, UniProt O43525+O43526); read-out Kv7.2/7.3 Activity: increase over baseline in current; what value for COCc1c(F)ccc2nc(NC(=O)CC(C)(C)C)n(C3CCC3)c12 [Example 394] ?
## Output O

## Input Test system Kv7.2/7.3 (Homo sapiens, UniProt O43525+O43526); read-out Kv7.2/7.3 Activity: increase over baseline in current; what value for CC(C)(C)CC(=O)Nc1nc2ccc(C3(O)CCC3)c(F)c2n1C1CCC1 [Example 451] ?
## Output O

## Input Test system Kv7.2/7.3 (Homo sapiens, UniProt O43525+O43526); read-out Kv7.2/7.3 Activity: increase over baseline in current; what value for C[C@H](C(=O)Nc1nc2c(F)cc(C(C)(C)O)cc2n1C1CCC1)C(C)(C)C [Example 443] ?
## Output ++ (3-3.9 (++))

## Input Test system Kv7.2/7.3 (Homo sapiens, UniProt O43525+O43526); read-out Kv7.2/7.3 Activity: increase over baseline in current; what value for CC(C)(O)c1cc(F)c2nc(NC(=O)CC3CC(F)(F)C3(F)F)n(C3CCC3)c2c1 (single isomer, unassigned) [Example 466] ?
## Output ++ (3-3.9 (++))

## Input Test system Kv7.2/7.3 (Homo sapiens, UniProt O43525+O43526); read-out Kv7.2/7.3 Activity: increase over baseline in current; what value for CC1(n2c(NC(=O)CC(O)(CF)CF)nc3ccc(OC(F)F)c(F)c32)CCC1 [Example 423] ?
## Output + (1.2-2.9 (+))
